Data provenance: paper PMC12648313

# experimental.target: ATF2 (Homo sapiens, UniProt P15336)
# Construct: human ATF2 bZIP domain spans from Asp352 to Gln410; made in house; host or cells: chemical synthesis (Fmoc solid-phase peptide synthesis), no expression host
# Sequence (P15336 352-410): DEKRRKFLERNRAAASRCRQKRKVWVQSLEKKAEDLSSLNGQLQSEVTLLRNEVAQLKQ
# test.method.notes: Isothermal titration calorimetry
# Format: binding
# condition.description: ATF2W (50 μM) titrated into ATF2 (5 μM), 20 °C; 50 mM potassium phosphate, 150 mM NaCl, 10 mM TCEP, pH 7.4; one-site model; average of three independent experiments ± SD
assay.readout: Kd (nM)

[[record]]
substance = "Ac-LEQQLEELAQENEELEKEAAELQQQIARLKNEVAKLENENKTLDREIKALQREYSHKSD-NH2 [ATF2W]"
assay_readout = "Kd"
recorded_value = 114

